Tested on: DLD1 NRF2-GOF
Assay: TC50 cytotoxicity; higher = less toxic
Settings: 72 h; CellTox Green cytotoxicity
measurement-type: TC50 cytotoxicity

TC50 cytotoxicity recorded for this compound, CNC(=O)c1nn(C)c2c1C(C)(C)Cc1cnc(Nc3ccc(N4CCN(C)CC4)cc3)nc1-2 , is > 10 µM

// sample CC[C@H](C)C(=O)O[C@H]1C[C@@H](C)C=C2C=C[C@H](C)[C@H](CC[C@@H]3C[C@@H](O)CC(=O)O3)[C@H]21 , its TC50 cytotoxicity was > 10 µM

// TC50 cytotoxicity value for O=C(Nc1cc(Oc2cc(F)c(NC(=O)C3(C(=O)Nc4ccc(F)cc4)CC3)cc2F)ccn1)C1CC1 : > 10 µM

Record COc1cc2c(NC3CCN(C(C)C)CC3)nc(N3CCC(F)(F)CC3)nc2cc1OCCCN1CCCC1 , field TC50 cytotoxicity: > 10 µM

TC50 cytotoxicity reading for COc1cc(N2CCC(N3CCN(C)CC3)CC2)ccc1Nc1ncc(Cl)c(Nc2ccccc2P(C)(C)=O)n1 : > 1 µM

// O=C(Nc1c[nH]nc1-c1nc2ccc(CN3CCOCC3)cc2[nH]1)NC1CC1 : TC50 cytotoxicity value = 0.0267 µM

// sample CNC(=O)c1cccc2cc(Oc3ccnc4cc(OCC5(N)CC5)c(OC)cc34)ccc12 , its TC50 cytotoxicity was > 10 µM

According to the records, this compound COc1cccc2c1c(O)c(C(=O)N(C)c1ccc(C(F)(F)F)cc1)c(=O)n2C displays TC50 cytotoxicity of > 10 µM

// TC50 cytotoxicity lookup, compound = Oc1ccc2c(c1)CC[C@H](c1ccccc1)[C@@H]2c1ccc(OCCN2CCCC2)cc1 , result: > 1 µM

// O=C(Nc1cccc(NC(=O)c2cccc(O)c2O)c1)c1cccc(O)c1O : TC50 cytotoxicity value = > 10 µM

// recorded TC50 cytotoxicity for CCN1CCN(Cc2ccc(Nc3ncc(F)c(-c4cc(F)c5nc(C)n(C(C)C)c5c4)n3)nc2)CC1 : > 2.5 µM

// recorded TC50 cytotoxicity for N#CC1(c2ccc(NC(=O)c3cccnc3NCc3ccncc3)cc2)CCCC1 : > 10 µM

Entry O=C(Nc1ccncc1)C(=O)c1cn(Cc2ccc(Cl)cc2)c2ccccc12 , TC50 cytotoxicity reported as > 10 µM

For reference, reported TC50 cytotoxicity for CCN1C(=O)CNc2ncc(-c3ccc(-c4nc[nH]n4)nc3C)nc21 stands at > 10 µM

TC50 cytotoxicity for CO[C@@H](C)Cn1c(=O)n(C)c2cnc3ccc(-c4cncc(C(C)(C)O)c4)cc3c21 is > 2.5 µM

The compound listed as CNc1ncc2cc(-c3cc(NC(=O)NCCC(C)(C)C)c(F)cc3C)c(C)nc2n1 has a reported TC50 cytotoxicity of > 10 µM

So, CC[C@H](C)C(=O)O[C@H]1C[C@H](O)C=C2C=C[C@H](C)[C@H](CC[C@@H](O)C[C@@H](O)CC(=O)O)[C@H]21 ? Its TC50 cytotoxicity was > 10 µM

Looking up CCCCCCCCCCCCCCCCOP(=O)([O-])OCC[N+](C)(C)C , I see its TC50 cytotoxicity listed as 10.4 µM

Entry CC(C)[C@H](C(=O)Nc1ccc(C(=O)NO)cc1)c1ccccc1 ; TC50 cytotoxicity = > 10 µM

Just so you know, measured TC50 cytotoxicity for CC1(C)NC(=O)N(c2ccc([N+](=O)[O-])c(C(F)(F)F)c2)C1=O [Nilutamide] came out at > 10 µM

What the record says about C=CCn1c(=O)c2cnc(Nc3ccc(N4CCN(C)CC4)cc3)nc2n1-c1cccc(C(C)(C)O)n1 : TC50 cytotoxicity is 0.171 µM

Recorded TC50 cytotoxicity (compound CCNCCS(=O)(=O)NC[C@@]1(c2ccccc2)SC(NC(=O)C(C)(C)C)=NN1C(=O)C(C)(C)C ): > 1 µM

Item: FC(F)(F)c1ccc(CNc2ccc(Cc3c[nH]c4ncc(Cl)cc34)cn2)cn1 | TC50 cytotoxicity: > 10 µM

The compound listed as COc1cc2/c(=N/c3ccc(Br)cc3F)nc[nH]c2cc1OCC1CCN(C)CC1 has a reported TC50 cytotoxicity of > 1 µM

The reported TC50 cytotoxicity of the compound Cc1sc2c(c1C)C(c1ccc(Cl)cc1)=N[C@@H](CC(=O)NCCCCNC(=O)COc1cccc3c1C(=O)N(C1CCC(=O)NC1=O)C3=O)c1nnc(C)n1-2 (stereo partly drawn) was > 10 µM

Entry CCn1c(-c2nonc2N)nc2c(C#CC(C)(C)O)ncc(OC[C@H]3CCCNC3)c21 ; TC50 cytotoxicity = > 10 µM

get_value(item= CO[C@@H](C(=O)N1Cc2[nH]nc(NC(=O)c3ccc(N4CCN(C)CC4)cc3)c2C1)c1ccccc1 , readout=TC50 cytotoxicity) returns > 10 µM

response.value for Cc1c(-c2c(-c3ccc(F)o3)sc3ncnc(O[C@H](Cc4ccccc4OCc4ccnn4CC(F)(F)F)C(=O)O)c23)ccc(OCCN2CCN(C)CC2)c1Cl (field: TC50 cytotoxicity) = > 1 µM

Value of TC50 cytotoxicity reported for the compound COc1cc2c(Oc3ccc(NC(=O)C4(C(=O)Nc5ccc(F)cc5)CC4)cc3F)ccnc2cc1OCCCN1CCOCC1 is 0.267 µM

Reported TC50 cytotoxicity for O=c1[nH]cc(F)c(=O)[nH]1 was > 10 µM

TC50 cytotoxicity recorded for this compound, C=CC(=O)Nc1cccc(Nc2nc(Nc3ccc(N4CCN(C(C)=O)CC4)cc3OC)ncc2C(F)(F)F)c1 , is > 10 µM

# TC50 cytotoxicity (compound: Cn1nnc2c(C(N)=O)ncn2c1=O [Temozolomide] ) is > 100 µM

// recorded TC50 cytotoxicity for C=CC(=O)Nc1cccc(Oc2nc(Nc3ccc(N4CCN(C)CC4)cc3)nc3ccsc23)c1 : > 1 µM

---

Tested on: DLD1 NRF2-WT
Assay: drug sensitivity score (DSS) viability (DSS score); higher = more sensitive; extreme values may be limits of the assay
Settings: 72 h; CellTiter-Glo viability
measurement-type: drug sensitivity score
No unit in the answer, only the number.

Record summary for CC(C)(C)c1cc(NC(=O)Nc2ccc(Oc3ccnc4[nH]c(=O)cnc34)cc2F)n(-c2ccccc2)n1 : reported drug sensitivity score = 9.8

Query CNC(=O)c1ccccc1Nc1nc(Nc2ccc3c(c2OC)CCC[C@H](N2CCN(CCO)CC2)C3)ncc1Cl yields drug sensitivity score of 9.2

Lab book: drug sensitivity score of CN1CCc2c(c3ccccc3n2Cc2ccc(C(=O)NO)cc2)C1 noted as 4

For this compound ( CCN(CC)CCOc1ccc(/C(=C(/Cl)c2ccccc2)c2ccccc2)cc1 ), measured drug sensitivity score is 5.4

Cc1cnc(Nc2ccc(OCCN3CCCC3)cc2)nc1Nc1cccc(S(=O)(=O)NC(C)(C)C)c1 yielded drug sensitivity score of 9.6

Given item C[C@H]1Oc2cc(cnc2N)-c2c(nn(C)c2C#N)CN(C)C(=O)c2ccc(F)cc21 , the value recorded as its drug sensitivity score is 0

According to the records, this compound CO[C@H]1C[C@@H]2CC[C@@H](C)[C@@](O)(O2)C(=O)C(=O)N2CCCC[C@H]2C(=O)O[C@H]([C@H](C)C[C@@H]2CC[C@@H](OC(=O)C(C)(CO)CO)[C@H](OC)C2)CC(=O)[C@H](C)/C=C(\C)[C@@H](O)[C@@H](OC)C(=O)[C@H](C)C[C@H](C)/C=C/C=C/C=C/1C displays drug sensitivity score of 4.1

---

Tested on: DLD1 NRF2-WT
Conditions: 72 h; CellTiter-Glo viability
For each entry below, report its log10 EC50 viability value.
Transform log10 | Measure EC50 viability | Unit nM

The reported log10 EC50 viability of the compound C=C1C[C@@H]2CC[C@@]34C[C@H]5O[C@H]6[C@@H](O3)[C@H]3O[C@H](CC[C@@H]3O[C@H]6[C@H]5O4)CC(=O)C[C@@H]3[C@@H](OC)[C@@H](C[C@H](O)CN)O[C@H]3C[C@H]3O[C@@H](CC[C@@H]1O2)C[C@@H](C)C3=C was 0.71

The value of log10 EC50 viability measured for the compound CCN(CC)CCCC(C)Nc1c2ccc(Cl)cc2nc2ccc(OC)cc12 (configuration not stated) turned out to be 3.08

In plain terms, CS(=O)(=O)N1CCN(Cc2cc3nc(-c4cccc5[nH]ncc45)nc(N4CCOCC4)c3s2)CC1 has a documented log10 EC50 viability of 3.00

For reference, reported log10 EC50 viability for COc1cccc(OCCCN)c1-c1cc(Nc2cnc(C#N)cn2)n[nH]1 stands at 2.87

// CCCCC(=O)OCC(=O)[C@]1(O)Cc2c(O)c3c(c(O)c2[C@@H](O[C@H]2C[C@H](NC(=O)C(F)(F)F)[C@H](O)[C@H](C)O2)C1)C(=O)c1c(OC)cccc1C3=O : log10 EC50 viability value = 2.74

Short answer for Cn1c(=O)n(-c2ccc(C(C)(C)C#N)cc2)c2c3cc(-c4cnc5ccccc5c4)ccc3ncc21 : log10 EC50 viability was 1.12

log10 EC50 viability for CCc1nc(C(N)=O)c(Nc2ccc(N3CCC(N4CCN(C)CC4)CC3)c(OC)c2)nc1NC1CCOCC1 is 2.40

Sure, the documented log10 EC50 viability for CC[C@]1(O)C[C@H]2CN(CCc3c([nH]c4ccccc34)[C@@](C(=O)OC)(c3cc4c(cc3OC)N(C)[C@H]3[C@@](O)(C(=O)OC)[C@H](OC(C)=O)[C@]5(CC)C=CCN6CC[C@]43[C@@H]65)C2)C1 is 0.72

Memo: CCNC(=O)C[C@@H]1N=C(c2ccc(Cl)cc2)c2cc(OC)ccc2-n2c(C)nnc21 , reported log10 EC50 viability: 3.04
